TEST NAME: Lipid peroxide levels in DLPC multilamellar vesicles, C/P 0.2 (triiodide assay)
Assay type: biochemical
EXPERIMENTAL CONTEXT: 24 Hour, carotenoid 10 μM
Marks after values point to notes of the source that are not given here.
READOUT NAME: % increase (+) or decrease (−) of lipid peroxide levels compared to control

COMPOUND	MEAS VALUE
CC1=C(/C=C/C(C)=C/C=C/C(C)=C/C=C/C=C(C)/C=C/C=C(C)/C=C/C2=C(C)CCCC2(C)C)C(C)(C)CCC1	+69.3%^a

Notebook: "CC1=C(/C=C/C(C)=C/C=C/C(C)=C/C=C/C=C(C)/C=C/C=C(C)/C=C/C2=C(C)C[C@@H](O)CC2(C)C)C(C)(C)C[C@H](O)C1" , % increase (+) or decrease (−) of lipid peroxide levels compared to control read as −0.5%^a
